Collected TGI values appear next to each entry.
system: RXF 393 renal; test: NCI tumour cell line growth inhibition, 48 h
ASSAY_METRIC: TGI (µM)

>  <COMPOUND>
CCCSc1ccc2[nH]c(N3C(=O)/C(=C/c4cc(OC)c(OC)c(OC)c4)N=C3c3ccccc3)cc2c1

>  <TGT>
RXF 393 renal

>  <VALUE_PREFIX>
=

>  <OBS_VALUE>
19.9

$$$$
>  <COMPOUND>
CC1(C)CCCOc2cccc(c2)OCCCC(C)(C)C1=O

>  <TGT>
RXF 393 renal

>  <VALUE_PREFIX>
=

>  <OBS_VALUE>
48.5

$$$$
>  <COMPOUND>
COc1cc(Cl)c2c3c(c(C(=O)c4ccccc4)oc13)CCC2

>  <TGT>
RXF 393 renal

>  <VALUE_PREFIX>
>

>  <OBS_VALUE>
100

$$$$
>  <COMPOUND>
CCCC(=O)OCC1OC(n2cc(F)c(=O)[nH]c2=O)C(F)C1OC(=O)CCC (centres undefined)

>  <TGT>
RXF 393 renal

>  <VALUE_PREFIX>
>

>  <OBS_VALUE>
100

$$$$
>  <COMPOUND>
Nc1ccc(Oc2ccc(C34CC5CC(C3)CC(c3ccc(Oc6ccc(N)cc6)cc3)(C5)C4)cc2)cc1

>  <TGT>
RXF 393 renal

>  <VALUE_PREFIX>
>

>  <OBS_VALUE>
51.9

$$$$
>  <COMPOUND>
CC(=O)NC(CCCNC(=O)NCCCl)C(=O)NCc1ccccc1 (centres undefined)

>  <TGT>
RXF 393 renal

>  <VALUE_PREFIX>
>

>  <OBS_VALUE>
100

$$$$
>  <COMPOUND>
O=C(Nc1ccccc1O)c1ccc(CNC(=O)c2sccc2Nc2ccnc(C(F)(F)F)c2)cc1

>  <TGT>
RXF 393 renal

>  <VALUE_PREFIX>
=

>  <OBS_VALUE>
15.6

$$$$
>  <COMPOUND>
CCCCCCCCCCCCn1[nH]c(C)c(C(=S)SCCCCCCCC)c1=O

>  <TGT>
RXF 393 renal

>  <VALUE_PREFIX>
>

>  <OBS_VALUE>
80.9

$$$$
>  <COMPOUND>
Cc1ccc(CC(Cc2ccc(C)cc2C(=O)O)C(=O)O)cc1 (centres undefined)

>  <TGT>
RXF 393 renal

>  <VALUE_PREFIX>
>

>  <OBS_VALUE>
100

$$$$
>  <COMPOUND>
CC1(C)N=C(C(=O)c2ccccc2)N(O)C1(O)c1ccccc1 (centres undefined)

>  <TGT>
RXF 393 renal

>  <VALUE_PREFIX>
>

>  <OBS_VALUE>
100

$$$$
>  <COMPOUND>
CC(/C=N\NC(=S)N(C)C)=N/NC(=S)N(C)C

>  <TGT>
RXF 393 renal

>  <VALUE_PREFIX>
=

>  <OBS_VALUE>
2.58

$$$$
>  <COMPOUND>
N#Cc1c(N)nc2c(c1-c1ccc(Br)cc1)CSc1ccccc1-2

>  <TGT>
RXF 393 renal

>  <VALUE_PREFIX>
=

>  <OBS_VALUE>
73.8

$$$$
>  <COMPOUND>
CN(/N=C\c1ccc2ccccc2c1)C1=NCCN1

>  <TGT>
RXF 393 renal

>  <VALUE_PREFIX>
=

>  <OBS_VALUE>
23.9

$$$$
>  <COMPOUND>
COc1cc(C)c(C)c(OC(=O)c2c(C)c(C)c(OC)c(C)c2OC)c1C

>  <TGT>
RXF 393 renal

>  <VALUE_PREFIX>
=

>  <OBS_VALUE>
39.7

$$$$
